Every entry's value here was drawn from patent US8183235B2.

System: OVCAR-3
Assay: Proliferation inhibition of ovarian cancer cells
Assay type: cell-based
Conditions: Homo sapiens
Where a name gives a salt, the structure may show the parent alone.
value-type: GI50 (µM)
The response must be a number in µM with no trailing unit.

Req: Can you share its GI50? I mean this molecule: "CN(C)CCCOc1ccc(C2=C(c3ccccc3)CCc3cc(OCCCN(C)C)ccc32)cc1"
Resp: 1.51

Req: Can you share its GI50? I mean this molecule: "c1ccc(C2=C(c3ccc(OCCN4CCOCC4)cc3)c3ccc(OCCN4CCOCC4)cc3CC2)cc1"
Resp: 17.4

Req: Can you share its GI50? I mean this molecule: "CCN(CC)CCOc1ccc(C2=C(c3ccccc3)CCc3cc(OCCN(CC)CC)ccc32)cc1"
Resp: 1.86

Req: Can you share its GI50? I mean this molecule: "CN(C)CCOc1ccc(C2=C(c3ccccc3)CCc3cc(OCCN(C)C)ccc32)cc1"
Resp: 1.62

Req: Can you share its GI50? I mean this molecule: "c1ccc(C2=C(c3ccc(OCCN4CCCCC4)cc3)c3ccc(OCCN4CCCCC4)cc3CC2)cc1"
Resp: 1.66

Req: Can you share its GI50? I mean this molecule: "c1ccc(C2=C(c3ccc(OCCN4CCCC4)cc3)c3ccc(OCCN4CCCC4)cc3CC2)cc1"
Resp: 1.58

Req: Can you share its GI50? I mean this molecule: CC/C(=C(\c1ccccc1)c1ccc(OCCN(C)C)cc1)c1ccccc1 [TAM, tamoxifen citrate, reference compound]
Resp: 4.68

Req: Can you share its GI50? I mean this molecule: "c1ccc(C2=C(c3ccc(OCCN4CCCCCC4)cc3)c3ccc(OCCN4CCCCCC4)cc3CC2)cc1"
Resp: 1.41

----------
System: SF-295
Counter-ions that a name gives are not always drawn.
Lab note: cut-off is 2000 nM. Strictly less in GI50 is Condition met. Exactly 2000 nM or more is Condition not met.

Req: Check if GI50 falls below 2000 nM for "c1ccc(C2=C(c3ccc(OCCN4CCCCC4)cc3)c3ccc(OCCN4CCCCC4)cc3CC2)cc1" .
Resp: Condition met

Req: Check if GI50 falls below 2000 nM for "c1ccc(C2=C(c3ccc(OCCN4CCOCC4)cc3)c3ccc(OCCN4CCOCC4)cc3CC2)cc1" .
Resp: Condition not met

Req: Check if GI50 falls below 2000 nM for "c1ccc(C2=C(c3ccc(OCCN4CCCC4)cc3)c3ccc(OCCN4CCCC4)cc3CC2)cc1" .
Resp: Condition met

Req: Check if GI50 falls below 2000 nM for CC/C(=C(\c1ccccc1)c1ccc(OCCN(C)C)cc1)c1ccccc1 [TAM, tamoxifen citrate, reference compound] .
Resp: Condition not met

Req: Check if GI50 falls below 2000 nM for "CN(C)CCCOc1ccc(C2=C(c3ccccc3)CCc3cc(OCCCN(C)C)ccc32)cc1" .
Resp: Condition met

Req: Check if GI50 falls below 2000 nM for "CCN(CC)CCOc1ccc(C2=C(c3ccccc3)CCc3cc(OCCN(CC)CC)ccc32)cc1" .
Resp: Condition met

Req: Check if GI50 falls below 2000 nM for "c1ccc(C2=C(c3ccc(OCCN4CCCCCC4)cc3)c3ccc(OCCN4CCCCCC4)cc3CC2)cc1" .
Resp: Condition met

Req: Check if GI50 falls below 2000 nM for "CN(C)CCOc1ccc(C2=C(c3ccccc3)CCc3cc(OCCN(C)C)ccc32)cc1" .
Resp: Condition met
